Cited source: patent US12116424B2

So I've got a bunch of compounds here, and I need their Emax values.
# tested_target: L. monocytogenes AgrC (Listeria monocytogenes serovar 1/2a)
# Sequence (Q8YAR5 entry or part of it): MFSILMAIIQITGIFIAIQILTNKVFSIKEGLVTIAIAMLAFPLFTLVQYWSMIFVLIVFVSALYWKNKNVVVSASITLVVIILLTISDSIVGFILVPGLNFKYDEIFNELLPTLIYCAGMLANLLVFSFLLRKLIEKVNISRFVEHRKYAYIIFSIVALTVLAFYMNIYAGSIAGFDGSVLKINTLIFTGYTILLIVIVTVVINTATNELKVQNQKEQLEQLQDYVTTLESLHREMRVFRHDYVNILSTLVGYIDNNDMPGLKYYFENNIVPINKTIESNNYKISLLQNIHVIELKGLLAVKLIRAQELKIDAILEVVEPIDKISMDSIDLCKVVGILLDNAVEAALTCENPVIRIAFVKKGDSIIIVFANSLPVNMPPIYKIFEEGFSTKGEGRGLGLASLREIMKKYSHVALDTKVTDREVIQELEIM
# assay_procedure: Fluorescence (agr-GFP) reporter agonism assay, ΔagrD reporter strain
# Assay type: cell-based
# Design: dose or concentration left out as unconfirmed
# applied_conditions: read-out: Max Activation Observed
Where a SMILES comes first, the peptide text is derived from it. Bridges are numbered along the chain shown (N, C = ends). [ ]: non-standard residue; d: D form.
# number then unit; no other words

[
  {
    "compound": "CSCC[C@@H]1NC(=O)[C@H](Cc2ccccc2)NC(=O)[C@@H](NC(=O)[C@@H](C)N)CSC(=O)[C@H](C(C)C)NC(=O)[C@H](Cc2ccccc2)NC1=O [AIP A1dA, dA-(C-F-M-F-V)] (H-[dA]CFMFV; thioester 2-C; N-terminus assumed)",
    "Emax": "58.8%"
  },
  {
    "compound": "CSCC[C@H]1NC(=O)[C@H](Cc2ccccc2)NC(=O)[C@H](NC(=O)[C@H](C)NC(=O)[C@@H](N)CCCCN)CSC(=O)[C@H](C(C)C)NC(=O)[C@H](Cc2ccccc2)NC1=O [7-mer C3dC/M5dM, K-A-(dC-F-dM-F-V)] (H-KA[dC]F[dM]FV; thioester 3-C; N-terminus assumed)",
    "Emax": "7.89%"
  },
  {
    "compound": "CSCC[C@@H]1NC(=O)[C@H](C)NC(=O)[C@@H](NC(=O)[C@H](C)N)CSC(=O)[C@H](C(C)C)NC(=O)[C@H](Cc2ccccc2)NC1=O [AIP F3A, A-(C-A-M-F-V)] (H-ACAMFV; thioester 2-C; N-terminus assumed)",
    "Emax": "9.72%"
  }
]

Next compound, please.
input: Using the record for CSCC[C@@H]1NC(=O)[C@H](Cc2ccc(O)cc2)NC(=O)[C@@H](NC(=O)[C@H](C)N)CSC(=O)[C@H](C(C)C)NC(=O)[C@H](Cc2ccccc2)NC1=O [AIP F3Y, A-(C-Y-M-F-V)] (H-ACYMFV; thioester 2-C; N-terminus assumed) , state its measured Emax.
output: 47.4%
